system: mAb 9G3.2; assay type: binding, mouse; settings: mAb 9G3.2; inhibitor mixed with antibody, PERI-AMA-BSA coated plate
Starred links: 1 amine or outer side, 2 acyl side, 3 side chain; linkers in the order of their positions; H or OH if unused. Positions of bridges follow the written chain, without caps; N, C: chain ends. Non-standard residues stand in square brackets, D forms with d. Residues, ends and D or L forms follow the SMILES beside them. ξ: configuration not given here. Trp(2-yl) = O=C([C@H](Cc1c([*:3])[nH]c2ccccc12)N[*:1])[*:2]; ξTrp(2-yl) = O=C(C(Cc1c([*:3])[nH]c2ccccc12)N[*:1])[*:2]; Leu(4R-OH,5-OH) = C[C@](O)(CO)C[C@H](N)C(=O)O; X1 = CC(O)(CO)CC(N[*:1])C(=O)[*:2]; cisHyp = O=C(O)[C@@H]1C[C@H](O)CN1; ξAsp(3ξ-OH) = NC(C(=O)O)C(O)C(=O)O; Hyp = O=C(O)[CH]1C[CH](O)CN1
parameter.measured: IC50

molecule | system.under.test | IC50
N[C@H](C(=O)O)c1cc(=O)[nH]o1 | mAb 9G3.2 | >1 µg/mL

Looking up NCc1cc(=O)[nH]o1 , I see its IC50 listed as >1 µg/mL

// sample C[C@@H]1NC(=O)[C@H](C[C@@](C)(O)CO)NC(=O)[C@@H]2Cc3c([nH]c4ccccc34)SC[C@H](NC(=O)[C@@H]([C@H](C)O)NC1=O)C(=O)N1C[C@@H](O)C[C@H]1C(=O)N[C@@H](C)C(=O)N2 [phalloidin] (cyclo(A[dT]C[cisHyp]A[Trp(2-yl)][Leu(4R-OH,5-OH)]); thioether 3-6) , its IC50 was >1 µg/mL

Sure, the documented IC50 for CC[C@H](C)[C@@H]1NC(=O)CNC(=O)[C@@H]2Cc3c([nH]c4cc(O)ccc34)[S+]([O-])C[C@@H](NC(=O)CNC1=O)C(=O)N[C@@H](CC(N)=O)C(=O)N1C[C@H](O)C[C@H]1C(=O)N[C@@H]([C@@H](C)[C@@H](O)CO)C(=O)N2 (stereo in doubt) is 0.00157 µg/mL

Reported IC50 of CC1NC(=O)C2CC(O)CN2C(=O)C2CSc3[nH]c4ccccc4c3CC(NC1=O)C(=O)NC(CC(C)(O)CO)C(=O)NC(C(C)C)C(=O)NC(C(O)C(=O)O)C(=O)N2 (centres unmarked) [phallacidin] (cyclo([ξAsp(3ξ-OH)]C[Hyp]A[ξTrp(2-yl)][X1]V); thioether 2-5; configuration not given here) : >1 µg/mL

###

Below, each entry is listed alongside its reported Cross reactivity.
test system: mAb 9C12.2; assay type: binding, mouse; details: mAb 9C12.2; (IC50 α-AMA)/(IC50 test inhibitor)×100
Starred links: 1 amine or outer side, 2 acyl side, 3 side chain; linkers in the order of their positions; H or OH if unused. Positions of bridges follow the written chain, without caps; N, C: chain ends. Non-standard residues stand in square brackets, D forms with d. Residues, ends and D or L forms follow the SMILES beside them. ξ: configuration not given here. Trp(2-yl) = O=C([C@H](Cc1c([*:3])[nH]c2ccccc12)N[*:1])[*:2]; ξTrp(2-yl) = O=C(C(Cc1c([*:3])[nH]c2ccccc12)N[*:1])[*:2]; Leu(4R-OH,5-OH) = C[C@](O)(CO)C[C@H](N)C(=O)O; X1 = CC(O)(CO)CC(N[*:1])C(=O)[*:2]; cisHyp = O=C(O)[C@@H]1C[C@H](O)CN1; ξAsp(3ξ-OH) = NC(C(=O)O)C(O)C(=O)O; Hyp = O=C(O)[CH]1C[CH](O)CN1

Illustrative cases are given below, each with its answer.
compound | result.value
C[C@@H]1NC(=O)[C@H](C[C@@](C)(O)CO)NC(=O)[C@@H]2Cc3c([nH]c4ccccc34)SC[C@H](NC(=O)[C@@H]([C@H](C)O)NC1=O)C(=O)N1C[C@@H](O)C[C@H]1C(=O)N[C@@H](C)C(=O)N2 [phalloidin] (cyclo(A[dT]C[cisHyp]A[Trp(2-yl)][Leu(4R-OH,5-OH)]); thioether 3-6) | <0.3%
CC1NC(=O)C2CC(O)CN2C(=O)C2CSc3[nH]c4ccccc4c3CC(NC1=O)C(=O)NC(CC(C)(O)CO)C(=O)NC(C(C)C)C(=O)NC(C(O)C(=O)O)C(=O)N2 (centres unmarked) [phallacidin] (cyclo([ξAsp(3ξ-OH)]C[Hyp]A[ξTrp(2-yl)][X1]V); thioether 2-5; configuration not given here) | <0.3%
NCc1cc(=O)[nH]o1 | <0.3%

Just so you know, measured Cross reactivity for CC[C@H](C)[C@@H]1NC(=O)CNC(=O)[C@@H]2Cc3c([nH]c4cc(O)ccc34)[S+]([O-])C[C@@H](NC(=O)CNC1=O)C(=O)N[C@@H](CC(N)=O)C(=O)N1C[C@H](O)C[C@H]1C(=O)N[C@@H]([C@@H](C)[C@@H](O)CO)C(=O)N2 (stereo in doubt) came out at 100%

Sample N[C@H](C(=O)O)c1cc(=O)[nH]o1 ; Cross reactivity observed: <0.3%

Reference source for all entries: patent US11802147B2
